What TGI was measured for each of the following?
- Test system: K-562 leukemia
- ASSAY_DETAILS: NCI tumour cell line growth inhibition, 48 h

IN: Using the record for c1ccc(-c2nc3ccccc3n3nnnc23)cc1 , report its TGI.
OUT: > 100 µM

IN: Using the record for CCOC(=O)C12C(=O)CCN1CCc1ccccc1C2C (stereo not given) , report its TGI.
OUT: > 100 µM

IN: Using the record for Cc1oc2c(C)c3oc(=O)cc(C)c3cc2c1CN , report its TGI.
OUT: > 100 µM

IN: Using the record for COc1cc(C2C3=C(N=C4SC(C(C)=O)=C(C)N42)c2ccccc2CC3)cc(OC)c1OC (stereo not given) , report its TGI.
OUT: 85.2 µM

IN: Using the record for O=c1c2cccnc2ncn1CCCN1CCOCC1 , report its TGI.
OUT: > 100 µM

IN: Using the record for C1=C[C@]2(CCC13OCCO3)COc1ccccc12 , report its TGI.
OUT: > 100 µM

IN: Using the record for C=C1[C@H](OCC(C)C)[C@@H](OC(=O)C(C)CC)[C@@H](O)C(C)(C)/C=C/[C@H](C)C(=O)[C@@]2(O)C[C@H](C)[C@H](O)[C@@H]2[C@H]1OC(=O)C(C)CC (stereo not given in full) , report its TGI.
OUT: > 13.5 µM

IN: Using the record for CC1=N/C(=C\c2ccc([N+](=O)[O-])cc2)C(=O)O1 , report its TGI.
OUT: > 100 µM

IN: Using the record for COC1=CCC2=C(CCN(C(=O)C3CCC3)C2Cc2ccc(OC)c(O)c2)C1 (stereo not given) , report its TGI.
OUT: > 100 µM

IN: Using the record for CCOC(=O)c1ccc(NC(NC(=O)CC)(C(F)(F)F)C(F)(F)F)cc1 , report its TGI.
OUT: > 100 µM

====

- Tested on: A549 NSCLC
- ASSAY_DETAILS: NCI tumour cell line growth inhibition, 48 h
What TGI was measured for each of the following?

IN: Test system A549 NSCLC; read-out TGI; what value for O=C(Nc1ccccc1F)c1ccc(NC2=C(Cl)C(=O)N(Cc3ccccc3)C2=O)cc1 ?
OUT: 26.3 µM

IN: Test system A549 NSCLC; read-out TGI; what value for CC(CN(C)C)C(=O)/C=C/c1ccc(Cl)c(Cl)c1 (stereo unspecified) ?
OUT: 13.8 µM

IN: Test system A549 NSCLC; read-out TGI; what value for CC(C)(C)n1cc(-c2ccnc(NCCNS(=O)(=O)c3cccc4ccccc34)c2)c(-c2cccc(F)c2)n1 ?
OUT: 76.6 µM

IN: Test system A549 NSCLC; read-out TGI; what value for COC(=O)C(N)CCCC(N)C(=O)NC(C)C(=O)NC(CCC(=O)NCCCNc1ccc([N+](=O)[O-])c2[nH]c3ccccc3c(=O)c12)C(N)=O (stereo unspecified) ?
OUT: 12.3 µM

IN: Test system A549 NSCLC; read-out TGI; what value for COc1cccc2c(Nc3ccc(C(=O)NCCN(C)C)cc3)cc(-c3ccccc3)nc12 ?
OUT: 33.1 µM

IN: Test system A549 NSCLC; read-out TGI; what value for O=C(CCC(=O)OCC1OC(O)(CC2OC(CO)C(O)C(O)C2O)C(O)C1O)OCc1ccccc1 (stereo unspecified) ?
OUT: > 100 µM

IN: Test system A549 NSCLC; read-out TGI; what value for CN(Cc1ccccc1)C1(N(C)Cc2ccccc2)CC1 ?
OUT: > 100 µM

IN: Test system A549 NSCLC; read-out TGI; what value for COc1cc(/C=C2\CCc3ccccc3C2=O)cc(OC)c1OC ?
OUT: 50.1 µM

IN: Test system A549 NSCLC; read-out TGI; what value for O=C1C=C(Nc2nc(C(=O)O)cc(=O)[nH]2)c2ccccc2C1=O ?
OUT: > 100 µM

IN: Test system A549 NSCLC; read-out TGI; what value for O=[N+]([O-])c1ccc2c(c1)S(=O)c1ccccc1-2 (stereo unspecified) ?
OUT: > 100 µM

IN: Test system A549 NSCLC; read-out TGI; what value for COc1cc(C2c3cc4c(cc3OC(N3CCOCC3)C2C)OCO4)cc(OC)c1OC(C)=O (stereo unspecified) ?
OUT: > 100 µM

IN: Test system A549 NSCLC; read-out TGI; what value for CCCCCCCCCC(=O)N[C@H]1CCc2cc(OC)c(OC)c(OC)c2-c2ccc(SC)c(=O)cc21 ?
OUT: > 100 µM

IN: Test system A549 NSCLC; read-out TGI; what value for CN1CCN(c2c(O)c3c(c(O)c2Cl)C(=O)C=CC3=O)CC1 ?
OUT: 4.27 µM

IN: Test system A549 NSCLC; read-out TGI; what value for N#Cc1nc(Nc2ccc([N+](=O)[O-])cc2)sc1N ?
OUT: > 100 µM

IN: Test system A549 NSCLC; read-out TGI; what value for O=C1C(=O)c2c(nc3ncccn23)-c2ccccc21 ?
OUT: 0.516 µM

IN: Test system A549 NSCLC; read-out TGI; what value for CN1c2ccccc2C(C)(C)C12CC(c1ccc(Cl)c(S(=O)(=O)N3CCCC3)c1)=NO2 (stereo unspecified) ?
OUT: > 100 µM

IN: Test system A549 NSCLC; read-out TGI; what value for Cc1ccc(N(C(=O)CC(=O)N2N=C(c3ccccc3)C(N=Nc3ccc([N+](=O)[O-])cc3)C2=O)C(=O)c2ccc(Cl)cc2)cc1 (stereo unspecified) ?
OUT: > 51.8 µM

IN: Test system A549 NSCLC; read-out TGI; what value for COC(=O)c1cc2c(cc1Cl)SC(N(N(C)C)S(=O)(=O)c1ccc(Cl)cc1)=NS2(=O)=O ?
OUT: > 100 µM

IN: Test system A549 NSCLC; read-out TGI; what value for COC1CCC(n2c([C@@H]3CCCC(=O)N3c3ccc(F)c(F)c3)nc3cc(-c4c(C)noc4C)ccc32)CC1 (stereo partly specified) ?
OUT: 69.5 µM

IN: Test system A549 NSCLC; read-out TGI; what value for CCOC(=O)O/N=C1/C(c2c(O)[nH]c3ccccc23)=Nc2ccccc21 ?
OUT: 33.1 µM

IN: Test system A549 NSCLC; read-out TGI; what value for O=C(NC(CO)CO)c1ccc2cc(C(=O)N3CC(CCl)c4ccc([N+](=O)[O-])cc43)[nH]c2c1 (stereo unspecified) ?
OUT: > 100 µM
